Reported TGI values for the following compounds.
- Tested on: HOP-92 NSCLC
- Test Method Notes: NCI tumour cell line growth inhibition, 48 h

NCCSSCc1ccccc1CSSCCN: > 100 µM
CC(C)[N+]([O-])(CCCNc1c2ccccc2nc2cccc([N+](=O)[O-])c12)C(C)C: 0.196 µM
COc1ccccc1Nc1cc(O)c2c(=O)cc(-c3ccccc3)oc2c1: 23.7 µM
CC1=C(C#N)C(=C(C#N)C#N)OC1(C)Cc1ccccc1 (stereo unspecified): 38.6 µM
CCOC1OC(COC(=O)C(C)(C)C)C(O)CC1n1cc(C)c(=O)[nH]c1=O (stereo unspecified): > 100 µM
NC(=O)NNC(=O)CCn1[nH]c(=O)c(Cl)c(Cl)c1=O: > 100 µM

// TGI lookup, compound = "CN(Cc1ccccc1)Cn1ccnc1" , result: > 100 µM

// TGI lookup, compound = "Cc1ccc2c(=O)cc(-c3sccc3C)[nH]c2n1" , result: > 100 µM

// TGI lookup, compound = "O=C1Nc2c(ccc(Cl)c2Cl)/C1=C/c1cc(Br)c(O)c(Br)c1" , result: 62.3 µM

// TGI lookup, compound = "O=C(Nc1ccccc1)c1cc(S(=O)(=O)Nc2n[nH]c(=O)n2-c2ccccc2)c(S)cc1Cl" , result: > 100 µM

// TGI lookup, compound = "COC(=O)c1cc2c(=O)n(C)c3ccccc3n2c1C(=O)OC" , result: > 100 µM

----------
- System: UACC-62 melanoma
- Test Method Notes: NCI tumour cell line growth inhibition, 48 h
Reported TGI values for the following compounds.
# number only, unit µM dropped from output

# annotated cases, reported TGI shown
CC(C)(C)C(=O)OCOP(=O)(NCc1ccccc1)C1CCCN(O)C1=O (stereo not given): 6.49
COC(COC(N)=O)C1=C(N2CC2)C(=O)C(C)=C(N2CC2)C1=O (stereo not given): 0.173

Then there is this compound:
// TGI lookup, compound = "Cc1cc(S(=O)(=O)Nc2n[nH]c(-c3ccc(Cl)cc3)n2)c(SSc2cc(Cl)c(C)cc2S(=O)(=O)Nc2n[nH]c(-c3ccc(Cl)cc3)n2)cc1Cl" , result: 47

----------
- System: KM12 colon
- Test Method Notes: NCI tumour cell line growth inhibition, 48 h; in the data active means GI50 below about 0.43 µM; inactive means the rest
A correct response names exactly one class from 1 (active), 0 (inactive)

# count of solved cases: 3
COc1ccc(C2(Cl)c3ccccc3N(c3ccccc3)c3ccccc32)cc1: 0
Cc1c(C)n(CCCN2CCN(C)CC2)c2ccc(Oc3cccc(C(=O)N4CCN(CCc5ccc(F)cc5)CC4)c3)cc12: 0
COc1cc(/C=C/c2cc(/C=C/c3ccc(O)c(OC)c3)n(C(=O)c3ccc(Cl)cc3)n2)ccc1O: 0

Turning to the following molecule.
Qu. // outcome(item) with item = "O=C1N[C@@H]2[C@@H](O)[C@@H](O)[C@H](O)C[C@H]2c2cc3c(c(O)c21)OCCO3"
Ans. 1

----------
Reported TGI values for the following compounds.
- System: RXF 393 renal
- Test Method Notes: NCI tumour cell line growth inhibition, 48 h

O=C(CSc1nc2c(n1Nc1ccccc1)-c1ccccc1SC2)Nc1nc(-c2ccc(Cl)cc2)cs1: 43.4 µM
O=C(Nc1ccccc1)c1cc(S(=O)(=O)Nc2n[nH]c(=O)n2-c2ccccc2)c(S)cc1Cl: > 100 µM
COc1cc2cc(OC(C)=O)c3cc4c(cc3c2c(OC)c1OC)OCO4: > 100 µM
Cc1cc(S(=O)(=O)Nc2n[nH]c(-c3ccc(Cl)cc3)n2)c(SSc2cc(Cl)c(C)cc2S(=O)(=O)Nc2n[nH]c(-c3ccc(Cl)cc3)n2)cc1Cl: 63.7 µM
c1ccc2c(CSCc3cccc4ccccc34)cccc2c1: > 100 µM

Then there is this compound:
// TGI lookup, compound = "CCOC(=O)C1=CCCC[C@H]1S(=O)(=O)Nc1ccc(F)cc1Cl" , result: 61.9 µM
